test: Cmax in C57BL/6 mouse at 1 mg/kg, iv measured after 5 mins by LC-MS/MS analysis; assay type: ADME, organism-based; design: route intravenous, dose 1 mg/kg, time 5 min; settings: in vivo
MEASURED ENDPOINT: Cmax (nM)
Give a bare numeral; the unit nM is implied.

input: Consider the compound shown here: CC(C)(Oc1cccc(N2CCC[C@@H](C(=O)N(Cc3ccc(-c4cn[nH]c4)cc3)C3CC3)C2)c1)C(=O)N1CCNCC1.Cl What is its recorded Cmax?
output: 790

* * *

assay: Intrinsic clearance in human liver microsomes at 1 uM measured up to 60 mins in presence of NADPH by LC-MS/SM analysis; format: ADME, Microsome
Each record here notes measured CLint at 1 h, 1 µM.
Give a bare numeral; the unit µL/min/mg is implied.

SMILES INPUT	CLint at 1 h, 1 µM, µL/min/mg
CC(C)(Oc1cccc(N2CCC[C@@H](C(=O)N(Cc3ccc(-c4cn[nH]c4)cc3)C3CC3)C2)c1)C(=O)N1CCNCC1.Cl	18

Could you now consider this next molecule?
input: Consider the molecule shown here: CCN(Cc1ccc(-c2cn[nH]c2)cc1)C(=O)[C@@H]1CCCN(c2cccc(OC(C)(C)C(=O)N3CCNCC3)c2)C1.Cl What is its recorded CLint at 1 h, 1 µM?
output: 24
